Values were extracted from the supplement of paper PMC10567573.

# ASSAY: protein stability index of a GFP-peptide fusion (GPS, HEK-293T) (PSI 1-6); higher = more stable;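 note: 24-mer peptide tiles fused after GFP, lentivirally expressed, FACS-sorted into six equal bins by GFP/DsRed ratio, decoded by Illumina sequencing, PSI is the read-weighted mean bin number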
# CONDITION_DETAILS: treatment: DMSO; c terminus: a fixed tail appended
Response key: true means protein stability index >= 3; false means protein stability index < 3.

| ORDERED_RESIDUES | CAT |
| --- | --- |
| ETFIVPDSFLVALDMDDGTLSFIV [SPSB1] | false |
| ESIESYDSCDRLTQSWSSQSSFNS [ETS1] | true |
| MRARDSVYHIECFRCSVCSRQLLP [ISL2] | false |
| KRTAQAIEPYITNFFNQVLMLGKT [PDS5B] | false |
| LSQPQQGEAMLANFKPRGYSECIV [GAN] | true |
| WGDLLGEDSLAALSSVPSEAQISD [SNAP91] | true |
| WFQNKRSKFKKLMKQGGAALEGSA [DLX1] | false |

* * *

# ASSAY: protein stability index of a GFP-peptide fusion (GPS, HEK-293T) (PSI 1-6); higher = more stable
# CONDITION_DETAILS: treatment: DMSO; c terminus: a fixed tail appended
MEASURED_PROPERTY: protein stability index

| ORDERED_RESIDUES | EXPERIMENTAL_RESULT |
| --- | --- |
| TLDPNGKTCSRVDHCAQQDHGCEQ [MATN2] | 4.03 |
| HECVNMEESYYCRCHRGYTLDPNG [MATN2] | 3.44 |
| RSWMFRRGPLNSDRSDYFAAWGAR [TRIM43] | 2.5 |
| NEKIYELRVMETKPDKAVSIIECD [UFD1] | 4.33 |
| YECTVCKKRFTRRSHLIGHQRTHS [ZNF449] | 4.86 |
| TLVGCWSDVVGRRSSLLACILLSA [MFSD9] | 2.84 |
| LLDKTCDQVMEFSWSALWNITDET [ZER1] | 2.37 |
| DVLLTLKHTVKEHECKLTQEILEL [IQUB] | 2.12 |
| SLDISGHMILENCSISKMEEEAGQ [ZER1] | 4.66 |
| REALVLRSVRVRLLLSFWKETDPL [PLD5] | 2.58 |
| DNAVKNHWNSTIKRKVDTGGFLSE [MYBL2] | 3.87 |
| SFFVPRPTPSTPRPTPQDWLHRRA [ADAMTS4] | 3.4 |
| FIIGELHPDDRPKLNKPPETLITT [CYB5A] | 2.73 |
| AAGSPRSPGPLPGARGLHLPDAGS [ISL2] | 4.6 |
| VHPFVNYNSSRFGEGVERELFVRE [MYORG] | 3.09 |
| AACLLQLDGLIQQCGETMKETVNV [GMCL1] | 3.14 |
| YTRIWSLHDARLLRTIPSPYPASK [DCAF4] | 2.46 |
| SNDFKSVLEVRTENLKQQRSRREQ [STX5] | 4.9 |
| VTVTDVDIVFSKIKGKSCRTITFE [TPPP] | 2.23 |
| DQLYRRKKDNHALVRETDELRRNH [ELOA2] | 4.53 |
| QSGFEMLKDVKSTLEKCEKVKTME [TRIM39] | 5.11 |
| ALSDAEFEGEGDYEEGMYADWWQE [P3H4] | 4.97 |
| EVITAAEFHPHHCNTFVYSSSKGT [PPP2R2B] | 3.28 |
| VIVQIKQPRKKYVQRKSDFDQTVF [NETO1] | 2.09 |
| EEEMNALRGQVGGEINVEMDAAPG [KRT17] | 5.45 |
| HQPVVRQCGPQTGLQSPGTLQPPE [TBX5] | 4.41 |
| EKAKAFWAMRRSYEAIAKHNQVEA [TRIM35] | 2.83 |
| HDGKNQPGVAYPAFLGPDEAFALP [SPSB4] | 4.12 |
| SDDAAAPALETQPQGDEEDIASRY [SMOC2] | 5.62 |
| FTRPNEKGEYEVAEGIGSTVFRAI [BTBD10] | 3.18 |
| MLLDIKTRLEQEIATYRSLLEGQD [KRT15] | 2.9 |
| FHAYYYCFITLTTIGFGDYVALQT [KCNK9] | 3.27 |
| GRIIAVFKPKNEEPYGHLNPKWTK [PI4K2A] | 2.09 |
| GPGAHILRRKSPASGQGPMCNVKA [ADAMTS4] | 4.05 |
| AARALDKNKIPYKGFIPEDLEAFI [FEM1A] | 2.96 |
| RTSSGTSREKTACAINKVGVSFST [FAM98B] | 3.29 |
| EVLIGAGYSTPADIWSTACMAFEL [SRPK2] | 3.14 |
| EKIAAEIAQAEEQARKRQEEREKE [SMARCE1] | 5.44 |
| LQGLIPGARYEVTVVSVRGFEESE [TNXB] | 2.19 |
| VILLPYVSKVTGWCRDRLLGHREP [TMEM175] | 2.28 |
| PAHKNLNKQAYDLAKALLKRTAQA [PDS5B] | 2.22 |
| PAPSPHEEPCSPGLLQDQGSGLSS [CBY2] | 5.31 |
| AQVDGAAMFAADPKKPIGGNIIAH [RAD51] | 4.23 |
| RSHSDSLDHDIFQLIDPDENKENE [CDC25A] | 5.14 |
| IANPNSLNHVKSMWYPEIKHFCPR [RHOBTB1] | 2.22 |
| PAISITENVLHFKAQGHGAKGDNV [HACD3] | 4.54 |
| LSSNREAHQHRDKMQQSKNQVVSS [CSNK1G3] | 4.72 |
| SVVPEMEESGAQLLLEMLTFNPHK [CDK4] | 3.14 |
| DHVHILDTETFTWSQPITTGKAPS [KLHDC2] | 3.82 |
| GMDLNLEAEALAGTGLVLDEQLNE [HDAC6] | 5.4 |
| ENITTVSVIKDHHTRSITSCCFDP [WDR88] | 3.55 |
| GLSHSHDLSMDGLFGTIAYLPPER [RIPK4] | 3.28 |
| RLVRVFRIFKLSRHSKGLQILGQT [KCNA1] | 2.65 |
